- Test system: gene editing with Cas9
- Experiment Notes: Screen of 322 new SSAP proteins, gene editing activity with Cas9 (Table 5)
- Format: cell-based
- Test Conditions: normalized
Measured Property: Cas9 with SSAP activity (normalized)

>>> test_result("SSAP_248: SEQ ID NO: 417; Peptoniphilus senegalensis (protein, listed as Peptoniphilus senegalensis) TNQIARKPVNEIKNVLSVPSVRNLFDNALADNAGAFVSSLIDLYGGDSYLQNCEPKDVVMEALKAATLKLPINKNLGFGYVVPFKNKNGKLVPTFIIGYKGLIQLAMRTGQYKAINSGIIYEGMEIKEDVLRGTLEIKGSKQSEKIKGYFAYFQLINGFEKALYMDVEEAADWGRKYSKSFAKGPWTTEFDAQAQKTCLRRLLSKYGVLSTEMQRLEKTEEDVDIAVGTIENNAVEELNIPSSQADYIVDEETGEILDDEEIVAPF")
"−1.210"

Data credit: patent US20250034594A1
